- experimental_system: HRgpA-6H (Porphyromonas gingivalis) (UniProt P28784)
- experiment_summary: ELISA, Fab FASEBA supernatant on coated HRgpA-6H

binder	Ratio OD(Variant)/OD(WT)
parental mouse (KB001) Fab FASEBA, VL variant S57Q (Fab, V domains shown) VH: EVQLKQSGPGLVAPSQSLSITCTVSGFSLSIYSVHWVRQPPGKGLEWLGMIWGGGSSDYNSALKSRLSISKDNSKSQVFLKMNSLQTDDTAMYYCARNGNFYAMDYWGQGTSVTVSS VL: QIVLTQSPAIMSASLGERVTMTCTASSSVSSSFLHWYQQKPGSSPQLWIYSTSNLAQGVPARFSGSGSGTSYSLTISSMEAEDAATYYCHQYHHSPYIYTFGGGTKLEIK	0.807 ratio to WT
parental mouse (KB001) Fab FASEBA, VL variant Q91M (Fab, V domains shown) VH: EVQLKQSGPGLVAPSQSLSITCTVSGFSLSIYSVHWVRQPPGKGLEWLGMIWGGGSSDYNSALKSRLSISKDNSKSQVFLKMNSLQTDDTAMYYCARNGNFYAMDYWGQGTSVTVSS VL: QIVLTQSPAIMSASLGERVTMTCTASSSVSSSFLHWYQQKPGSSPQLWIYSTSNLASGVPARFSGSGSGTSYSLTISSMEAEDAATYYCHMYHHSPYIYTFGGGTKLEIK	0.879 ratio to WT
parental mouse (KB001) Fab FASEBA, VL variant T100P (Fab, V domains shown) VH: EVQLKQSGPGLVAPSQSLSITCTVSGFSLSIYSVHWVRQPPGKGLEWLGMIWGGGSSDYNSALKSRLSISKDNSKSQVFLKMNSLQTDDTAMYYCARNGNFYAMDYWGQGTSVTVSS VL: QIVLTQSPAIMSASLGERVTMTCTASSSVSSSFLHWYQQKPGSSPQLWIYSTSNLASGVPARFSGSGSGTSYSLTISSMEAEDAATYYCHQYHHSPYIYPFGGGTKLEIK	0.879 ratio to WT
